All figures here come from ChEMBL document CHEMBL4834480.

- targetOrTestSystem: CYP3A4 (Homo sapiens, UniProt P08684)
- Sequence (P08684 whole entry): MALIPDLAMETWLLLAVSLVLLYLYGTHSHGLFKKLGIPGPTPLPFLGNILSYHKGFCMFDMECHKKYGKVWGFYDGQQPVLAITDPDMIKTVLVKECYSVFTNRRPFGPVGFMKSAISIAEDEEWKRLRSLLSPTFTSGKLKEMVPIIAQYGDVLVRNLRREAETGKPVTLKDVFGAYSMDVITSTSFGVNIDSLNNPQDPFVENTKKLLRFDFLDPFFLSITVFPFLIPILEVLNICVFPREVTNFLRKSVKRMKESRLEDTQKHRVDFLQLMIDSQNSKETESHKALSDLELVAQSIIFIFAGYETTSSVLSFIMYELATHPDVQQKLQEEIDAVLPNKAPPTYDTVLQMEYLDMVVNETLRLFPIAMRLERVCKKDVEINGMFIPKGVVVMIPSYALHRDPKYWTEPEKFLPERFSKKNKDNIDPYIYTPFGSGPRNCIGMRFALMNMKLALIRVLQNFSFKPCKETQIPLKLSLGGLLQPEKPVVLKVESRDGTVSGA
- methodSummary: Inhibition of CYP3A4 (unknown origin) at 10 uM preincubated for 5 min followed by NADPH addition and measured after 20 mins by LC-MS/MS analysis relative to control
- Format: ADME
- reportedConditions: time 25 min
valueKind: inhibition at 20 min, 10 µM
# output: number + unit

QUERY: Report inhibition at 20 min, 10 µM for `CC(=O)c1ccc(S(=O)(=O)c2c(C)c(C(=O)O)n(CCCOc3cc(C)c(Cl)c(C)c3)c2C)cc1`
RESULT: 29.4%

###

Assignment: determine reported pIC50 for the given molecules.
- Tested on: K562
- methodSummary: Antiproliferative activity against human K562 cells assessed as decrease in cell viability measured after 72 hrs by MTT assay
- Format: functional, cell-based
- reportedConditions: K562, 72 h
pIC50: −log10 of the molar value.

QUERY: # return recorded pIC50 for entry `Cc1c2c(nn1C)CSCc1cc(n(C)n1)CSc1cc(c3ccccc3c1)OCCCc1c(C(=O)O)n(C)c3c-2c(Cl)ccc13`
RESULT: 4.53

QUERY: Determine its reported pIC50: `CC(=O)c1ccc(S(=O)(=O)c2c(C)c(C(=O)O)n(CCCOc3cc(C)c(Cl)c(C)c3)c2C)cc1`
RESULT: < 4.52

QUERY: Give the value of pIC50 reported for the following: `Cc1cc(OCCCn2c(C)c(S(=O)(=O)c3ccc(O)cc3)c(C)c2C(=O)O)cc(C)c1Cl`
RESULT: 4.83

QUERY: Read off the recorded pIC50 for `Cc1nn(C)c(COc2ccc(N3CCN(S(=O)(=O)N(C)C)CC3)cc2)c1-c1cccc2c(CCCOc3cccc4ccccc34)c(C(=O)O)n(CCN3CCOCC3)c12`
RESULT: < 4.52

QUERY: Give the value of pIC50 reported for the following: `Cc1cc(OCCCn2c(C)c(S(=O)(=O)c3ccc(Br)cc3)c(C)c2C(=O)O)cc(C)c1Cl`
RESULT: < 4.52

QUERY: Supply measured pIC50 of `Cc1cc(OCCCn2c(C)c(S(=O)(=O)c3cccs3)c(C)c2C(=O)O)cc(C)c1Cl` in your reply.
RESULT: 4.95

QUERY: Note pIC50 for the molecule shown: `CCc1ccc(S(=O)(=O)c2c(C)c(C(=O)O)n(CCCOc3cc(C)c(Cl)c(C)c3)c2C)cc1`
RESULT: < 4.52

QUERY: Determine its reported pIC50: `COc1ccc(S(=O)(=O)c2c(C)c(C(=O)O)n(CCCOc3cc(C)c(Cl)c(C)c3)c2C)cc1`
RESULT: < 4.52

###

- methodSummary: Intrinsic clearance in rat liver microsomes
- Assay type: ADME, Microsome
- reportedConditions: read-out: CLH
valueKind: microsomal CLint (µL/min/mg)
Give just the numeric value; µL/min/mg need not be written.

QUERY: Output microsomal CLint of `CC(=O)c1ccc(S(=O)(=O)c2c(C)c(C(=O)O)n(CCCOc3cc(C)c(Cl)c(C)c3)c2C)cc1`
RESULT: 31.4

###

- targetOrTestSystem: Induced myeloid leukemia cell differentiation protein Mcl-1 (Homo sapiens)
- Sequence (Q07820 whole entry, the tested form may be a part): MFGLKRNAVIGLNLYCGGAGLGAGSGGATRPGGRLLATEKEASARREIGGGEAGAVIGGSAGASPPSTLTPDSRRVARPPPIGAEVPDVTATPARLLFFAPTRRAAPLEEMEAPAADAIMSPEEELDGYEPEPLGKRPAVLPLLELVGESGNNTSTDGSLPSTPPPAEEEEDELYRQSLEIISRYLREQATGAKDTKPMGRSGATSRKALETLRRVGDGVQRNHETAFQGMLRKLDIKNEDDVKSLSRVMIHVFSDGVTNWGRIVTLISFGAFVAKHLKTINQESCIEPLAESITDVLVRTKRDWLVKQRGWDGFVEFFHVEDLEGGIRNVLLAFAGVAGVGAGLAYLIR
- methodSummary: Inhibition of FITC-labeled Bak BH3 peptide binding to GST-tagged MCL1 (171 to 327 residues) (unknown origin) expressed in Escherichia coli BL21 (DE3) incubated for 30 mins fluorescence polarization-based competitive binding assay
valueKind: pKi
In textbook form, pKi equals minus log to base ten of the concentration in mol/L.

QUERY: Return pKi for the following compound: `Cc1ccc(S(=O)(=O)c2cc(C(=O)O)n(CCCOc3cc(C)c(Cl)c(C)c3)c2)cc1`
RESULT: 6.33

QUERY: Given the compound `Cc1cc(OCCCn2c(C)c(S(=O)(=O)c3ccc(C(C)(C)C)cc3)c(C)c2C(=O)O)cc(C)c1Cl` , write its reported pKi.
RESULT: 6.47

QUERY: Quick one: give measured pKi for `Cc1ccc(S(=O)(=O)c2c(C)c(C(=O)O)n(CCCOc3cc(C)c(Cl)c(C)c3)c2C)cc1`
RESULT: 6.77

QUERY: Tell us which pKi value is on record for `Cc1cc(OCCCn2c(C)c(S(=O)(=O)c3ccccn3)c(C)c2C(=O)O)cc(C)c1Cl`
RESULT: 5.72

QUERY: Return value of pKi for input `Cc1cc(OCCCn2c(C)c(S(=O)(=O)c3ccc(C(=O)c4ccccc4)cc3)c(C)c2C(=O)O)cc(C)c1Cl` , no commentary.
RESULT: 6.42

QUERY: State, in one line, measured pKi of `Cc1cc(OCCCn2c(C)c(S(=O)(=O)c3ccc(Cl)cc3)c(C)c2C(=O)O)cc(C)c1Cl`
RESULT: 6.74

QUERY: Given the compound `COc1cccc(S(=O)(=O)c2c(C)c(C(=O)O)n(CCCOc3cc(C)c(Cl)c(C)c3)c2C)c1` , write its reported pKi.
RESULT: 6.70

QUERY: Name the recorded pKi of the item `Cc1cc(OCCCn2c(C)c(S(=O)(=O)c3cccc4ccccc34)c(C)c2C(=O)O)cc(C)c1Cl` in your answer.
RESULT: 6.44

QUERY: Give the measured pKi for `Cc1cc(OCCCn2c(C)c(S(=O)(=O)c3ccc(N)cc3)c(C)c2C(=O)O)cc(C)c1Cl`
RESULT: 6.47

QUERY: Give recorded pKi. `Cc1cc(OCCCn2c(C)c(S(=O)(=O)c3ccc(C(=O)O)cc3)c(C)c2C(=O)O)cc(C)c1Cl`
RESULT: 6.38

QUERY: Please report pKi for the following compound: `Cc1cc(OCCCn2c(C)c(S(=O)(=O)c3ccncc3)c(C)c2C(=O)O)cc(C)c1Cl`
RESULT: 6.05

QUERY: Provide only the value of recorded pKi for `CCc1c(S(=O)(=O)c2ccc(C)cc2)c(CC)n(CCCOc2cc(C)c(Cl)c(C)c2)c1C(=O)O`
RESULT: 5.71

QUERY: Supply recorded pKi for `Cc1cc(OCCCn2c(C)c(S(=O)(=O)c3ccccc3)c(C)c2C(=O)O)cc(C)c1Cl` here.
RESULT: 6.72

QUERY: Name the recorded pKi of the item `CC(=O)c1ccccc1S(=O)(=O)c1c(C)c(C(=O)O)n(CCCOc2cc(C)c(Cl)c(C)c2)c1C` in your answer.
RESULT: 6.30

QUERY: State, in one line, measured pKi of `Cc1cc(OCCCn2c(C)c(S(=O)(=O)c3ccc(-c4ccccc4)cc3)c(C)c2C(=O)O)cc(C)c1Cl`
RESULT: 6.89

QUERY: Return the recorded pKi value; entry: `Cc1cc(OCCCn2c(C)c(S(=O)(=O)c3cccc(O)c3)c(C)c2C(=O)O)cc(C)c1Cl`
RESULT: 6.82

QUERY: Specify reported pKi for the compound shown: `CCc1c(S(=O)(=O)c2ccc(C)cc2)c(C)n(CCCOc2cc(C)c(Cl)c(C)c2)c1C(=O)O`
RESULT: 6.92

QUERY: Specify pKi for `Cc1cc(OCCCn2c(C)c(S(=O)(=O)Cc3ccccc3)c(C)c2C(=O)O)cc(C)c1Cl` and stop.
RESULT: 5.70

QUERY: Provide only the value of recorded pKi for `Cc1ccc(S(=O)(=O)c2cn(CCCOc3cc(C)c(Cl)c(C)c3)c(C(=O)O)c2C)cc1`
RESULT: 6.09

QUERY: Output pKi of `Cc1cc(OCCCn2c(C)c(S(=O)(=O)c3ccc(F)cc3)c(C)c2C(=O)O)cc(C)c1Cl`
RESULT: 6.59

QUERY: Consider the compound `COc1ccc(S(=O)(=O)c2c(C)c(C(=O)O)n(CCCOc3cc(C)c(Cl)c(C)c3)c2C)cc1` and give its recorded pKi.
RESULT: 7.15

###

- methodSummary: Cmax in Sprague-Dawley rat at 10 mg/kg, po measured up to 24 hrs by LC-MS/MS analysis
- Assay type: ADME, organism-based
- Parameters: route oral, dose 10 mg/kg, time <=24
- reportedConditions: in vivo
valueKind: Cmax (ng/mL)
Quick reminder: number only, in ng/mL, skip the unit.

QUERY: For the compound `CC(=O)c1ccc(S(=O)(=O)c2c(C)c(C(=O)O)n(CCCOc3cc(C)c(Cl)c(C)c3)c2C)cc1` , give its measured Cmax value.
RESULT: 2010

###

- methodSummary: Water solubility of the compound
- Format: physicochemical
valueKind: solubility (µg/mL)
Expressed in µg/mL, but write only the number.

QUERY: Complete the entry with solubility for `CC(=O)c1ccc(S(=O)(=O)c2c(C)c(C(=O)O)n(CCCOc3cc(C)c(Cl)c(C)c3)c2C)cc1`
RESULT: 32.3

###

- methodSummary: Half life in human liver microsomes
- Format: ADME, Microsome
valueKind: half-life (min)
Provide the reading as a plain figure in min.

QUERY: Give the value of half-life reported for the following: `CC(=O)c1ccc(S(=O)(=O)c2c(C)c(C(=O)O)n(CCCOc3cc(C)c(Cl)c(C)c3)c2C)cc1`
RESULT: 49.8
